test: Therapeutic index, ratio of HC10 for mouse RBC to IC50 for cytotoxicity against human A549 cells; type: toxicity, cell-based; settings: mouse RBC and A549 cells, read-out: TI
Residues, ends and D or L forms follow the SMILES beside them.
Values of selectivity ratio greater than or equal to 3 map to Criterion met; values below map to Criterion not met.

Field: example entries. Status: answers known.
| COMPOUND | QUALITATIVE LABEL |
| --- | --- |
| CC(C)C[C@H](NC(=O)[C@H](CC(C)C)NC(=O)[C@H](CCCCN)NC(=O)[C@H](CCCCN)NC(=O)[C@H](CC(C)C)NC(=O)[C@H](CC(C)C)NC(=O)[C@H](CCCCN)NC(=O)[C@H](CCCCN)NC(=O)[C@H](CC(C)C)NC(=O)[C@H](CC(C)C)NC(=O)[C@H](CCCCN)NC(=O)[C@H](CCCCN)NC(=O)[C@H](CC(C)C)NC(=O)[C@H](CC(C)C)NC(=O)[C@H](CCCCN)NC(=O)[C@@H](N)CCCCN)C(=O)N[C@@H](CCCCN)C(N)=O (H-KKLLKKLLKKLLKKLLK-NH2) | Criterion not met |
| CC(C)C[C@H](NC(=O)[C@H](CC(C)C)NC(=O)[C@H](CCCCN)NC(=O)[C@H](CCCCN)NC(=O)[C@H](CC(C)C)NC(=O)[C@H](CC(C)C)NC(=O)[C@H](CCCCN)NC(=O)[C@H](CCCCN)NC(=O)[C@H](CC(C)C)NC(=O)[C@H](CC(C)C)NC(=O)[C@@H](N)CCCCN)C(=O)N[C@@H](CCCCN)C(N)=O (H-KLLKKLLKKLLK-NH2) | Criterion met |
| CC(C)C[C@H](NC(=O)[C@H](CC(C)C)NC(=O)[C@H](CCCCN)NC(=O)[C@H](CCC(=O)O)NC(=O)[C@H](CC(C)C)NC(=O)[C@H](CC(C)C)NC(=O)[C@H](CCCCN)NC(=O)[C@H](CCCCN)NC(=O)[C@H](CC(C)C)NC(=O)[C@H](CC(C)C)NC(=O)[C@H](CCCCN)NC(=O)[C@H](CCCCN)NC(=O)[C@H](CC(C)C)NC(=O)[C@@H](N)CC(C)C)C(N)=O (H-LLKKLLKKLLEKLL-NH2) | Criterion met |
| CC(C)C[C@H](NC(=O)[C@H](CC(C)C)NC(=O)[C@H](CCCCN)NC(=O)[C@H](CCCCN)NC(=O)[C@H](CC(C)C)NC(=O)[C@H](CC(C)C)NC(=O)[C@H](CCCCN)NC(=O)[C@H](CCCCN)NC(=O)[C@H](CC(C)C)NC(=O)[C@H](CC(C)C)NC(=O)[C@H](CCCCN)NC(=O)[C@H](CCCCN)NC(=O)[C@H](CCC(=O)O)NC(=O)[C@@H](N)CC(C)C)C(N)=O (H-LEKKLLKKLLKKLL-NH2) | Criterion not met |

hey, is selectivity ratio for this one >= 3? CC(C)C[C@H](NC(=O)[C@H](CCCCN)NC(=O)[C@H](CC(C)C)NC(=O)[C@H](CC(C)C)NC(=O)[C@H](CCCCN)NC(=O)[C@H](CCCCN)NC(=O)[C@H](CC(C)C)NC(=O)[C@H](CC(C)C)NC(=O)[C@H](CCCCN)NC(=O)[C@H](CCCCN)NC(=O)[C@H](CC(C)C)NC(=O)[C@H](CC(C)C)NC(=O)[C@H](CCCCN)NC(=O)[C@@H](N)CCCCN)C(N)=O (H-KKLLKKLLKKLLKL-NH2) Criterion met

====

For each record, write down the corresponding selectivity ratio.
assay: Therapeutic index, ratio of HC10 for mouse RBC to IC50 for cytotoxicity against RG cells (unknown origin); format: toxicity, cell-based; conditions: mouse RBC and RG cells, read-out: TI
Non-standard residues stand in square brackets, D forms with d. Residues, ends and D or L forms follow the SMILES beside them. Nle(6-COOH) = N[C@@H](CCCCC(=O)O)C(=O)O
Answers are plain numbers.

| MOLECULE | OBSERVED PROPERTY | RESULT |
| --- | --- | --- |
| CC(C)C[C@H](NC(=O)[C@H](CCCCN)NC(=O)[C@H](CCCCN)NC(=O)[C@H](CC(C)C)NC(=O)[C@H](CC(C)C)NC(=O)[C@H](CCCCN)NC(=O)[C@H](CCCCN)NC(=O)[C@H](CC(C)C)NC(=O)[C@H](CC(C)C)NC(=O)[C@H](CCCCN)NC(=O)[C@H](CCCCN)NC(=O)[C@H](CC(C)C)NC(=O)[C@@H](N)CC(C)C)C(=O)N[C@@H](CCC(=O)O)C(N)=O (H-LLKKLLKKLLKKLE-NH2) | selectivity ratio | 14.2 |

API: the following record is the query input.
Look up selectivity ratio: CC(C)C[C@H](NC(=O)[C@H](CCCCN)NC(=O)[C@H](CCCCN)NC(=O)[C@H](CC(C)C)NC(=O)[C@H](CC(C)C)NC(=O)[C@H](CCCCN)NC(=O)[C@H](CCCCN)NC(=O)[C@H](CC(C)C)NC(=O)[C@H](CC(C)C)NC(=O)[C@H](CCCCN)NC(=O)[C@H](CCCCN)NC(=O)[C@H](CC(C)C)NC(=O)[C@@H](N)CC(C)C)C(=O)N[C@@H](CCCCC(=O)O)C(N)=O (H-LLKKLLKKLLKKL[Nle(6-COOH)]-NH2) 9.42

====

system: MCF7; experiment: Effect on cell cycle progression in human MCF7 cells at 1 times IC50 measured after 1 hr by PI/RNase staining based flow cytometry analysis; assay type: functional
Activity calls are given as the source filed them. The rule behind the calls is not given here. Non-standard residues stand in square brackets, D forms with d. Residues, ends and D or L forms follow the SMILES beside them. Aad = N[C@@H](CCCC(=O)O)C(=O)O
OBSERVED PROPERTY: Activity

| MOLECULE | OBSERVED PROPERTY | RESULT |
| --- | --- | --- |
| CC(C)C[C@H](NC(=O)[C@H](CCCCN)NC(=O)[C@H](CCCCN)NC(=O)[C@H](CC(C)C)NC(=O)[C@H](CC(C)C)NC(=O)[C@H](CCCCN)NC(=O)[C@H](CCCCN)NC(=O)[C@H](CC(C)C)NC(=O)[C@H](CC(C)C)NC(=O)[C@H](CCCCN)NC(=O)[C@H](CCCCN)NC(=O)[C@H](CC(C)C)NC(=O)[C@@H](N)CC(C)C)C(=O)N[C@@H](CCC(=O)O)C(N)=O (H-LLKKLLKKLLKKLE-NH2) | Activity | inactive |
| CC(C)C[C@H](NC(=O)[C@H](CCCCN)NC(=O)[C@H](CCCCN)NC(=O)[C@H](CC(C)C)NC(=O)[C@H](CC(C)C)NC(=O)[C@H](CCCCN)NC(=O)[C@H](CCCCN)NC(=O)[C@H](CC(C)C)NC(=O)[C@H](CC(C)C)NC(=O)[C@H](CCCCN)NC(=O)[C@H](CCCCN)NC(=O)[C@H](CC(C)C)NC(=O)[C@@H](N)CC(C)C)C(=O)N[C@@H](CCCC(=O)O)C(N)=O (H-LLKKLLKKLLKKL[Aad]-NH2) | Activity | inactive |
| CC(=O)O[C@H]1C(=O)[C@@]2(C)[C@H]([C@H](OC(=O)c3ccccc3)[C@]3(O)C[C@H](OC(=O)[C@H](O)[C@@H](NC(=O)c4ccccc4)c4ccccc4)C(C)=C1C3(C)C)[C@]1(OC(C)=O)CO[C@@H]1C[C@@H]2O | Activity | inactive |

====

assay: Therapeutic index, ratio of HC10 for mouse RBC to IC50 for cytotoxicity against human A549 cells; type: toxicity, cell-based; conditions: mouse RBC and A549 cells, read-out: TI
Non-standard residues stand in square brackets, D forms with d. Residues, ends and D or L forms follow the SMILES beside them. Nle(6-COOH) = N[C@@H](CCCCC(=O)O)C(=O)O
For each record, write down the corresponding selectivity ratio.
Give bare numbers.

These solved cases illustrate the format of a correct answer.
| COMPOUND | RESULT |
| --- | --- |
| CC(C)C[C@H](NC(=O)[C@H](CCCCN)NC(=O)[C@H](CCCCN)NC(=O)[C@H](CC(C)C)NC(=O)[C@H](CC(C)C)NC(=O)[C@H](CCCCN)NC(=O)[C@H](CCCCN)NC(=O)[C@H](CC(C)C)NC(=O)[C@H](CC(C)C)NC(=O)[C@H](CCCCN)NC(=O)[C@H](CCCCN)NC(=O)[C@H](CC(C)C)NC(=O)[C@@H](N)CC(C)C)C(=O)N[C@@H](CCCCC(=O)O)C(N)=O (H-LLKKLLKKLLKKL[Nle(6-COOH)]-NH2) | 17.1 |
| CC(C)C[C@H](NC(=O)[C@H](CC(C)C)NC(=O)[C@H](CCCCN)NC(=O)[C@H](CCCCN)NC(=O)[C@H](CC(C)C)NC(=O)[C@H](CC(C)C)NC(=O)[C@H](CCCCN)NC(=O)[C@H](CCCCN)NC(=O)[C@H](CC(C)C)NC(=O)[C@H](CC(C)C)NC(=O)[C@H](CCCCN)NC(=O)[C@H](CC(C)C)NC(=O)[C@H](CC(C)C)NC(=O)[C@@H](N)CCCCN)C(N)=O (H-KLLKLLKKLLKKLL-NH2) | 0.486 |
| CC(C)C[C@H](NC(=O)[C@H](CC(C)C)NC(=O)[C@H](CCCCN)NC(=O)[C@H](CCCCN)NC(=O)[C@H](CC(C)C)NC(=O)[C@H](CC(C)C)NC(=O)[C@H](CCC(=O)O)NC(=O)[C@H](CCCCN)NC(=O)[C@H](CC(C)C)NC(=O)[C@H](CC(C)C)NC(=O)[C@H](CCCCN)NC(=O)[C@H](CCCCN)NC(=O)[C@H](CC(C)C)NC(=O)[C@@H](N)CC(C)C)C(N)=O (H-LLKKLLKELLKKLL-NH2) | 1.39 |
| CC(C)C[C@H](NC(=O)[C@H](CC(C)C)NC(=O)[C@H](CCCCN)NC(=O)[C@H](CCCCN)NC(=O)[C@H](CC(C)C)NC(=O)[C@H](CC(C)C)NC(=O)[C@H](CCCCN)NC(=O)[C@H](CCCCN)NC(=O)[C@H](CC(C)C)NC(=O)[C@H](CC(C)C)NC(=O)[C@H](CCCCN)NC(=O)[C@H](CCCCN)NC(=O)[C@H](CC(C)C)NC(=O)[C@@H](N)CC(C)C)C(N)=O (H-LLKKLLKKLLKKLL-NH2) | 2.96 |

API: the following record is the query input.
Look up selectivity ratio: CC(C)C[C@H](NC(=O)[C@H](CC(C)C)NC(=O)[C@H](CCCCN)NC(=O)[C@H](CCCCN)NC(=O)[C@H](CC(C)C)NC(=O)[C@H](CC(C)C)NC(=O)[C@H](CCCCN)NC(=O)[C@H](CCCCN)NC(=O)[C@H](CC(C)C)NC(=O)[C@H](CC(C)C)NC(=O)[C@H](CCCCN)NC(=O)[C@H](CCCCN)NC(=O)[C@H](CC(C)C)NC(=O)[C@@H](N)CCC(=O)O)C(N)=O (H-ELKKLLKKLLKKLL-NH2) 1.75

This collection of values is drawn from ChEMBL document CHEMBL5584231.
